Below, each entry is listed alongside its reported IC50.
protocol.description: cells
Calls of active or inactive are those of the source.

O=S(=O)(c1ccccc1F)N1CCC(c2nc(O)c3nnn(Cc4ccc5c(c4)OCCO5)c3n2)CC1 : 45.3 µM (active)
Cc1c(CC(=O)N2CCN(C(=O)C3COc4ccccc4O3)CC2)c(=O)oc2cc(O)cc(O)c12 (centres undefined) : 3.62 µM (active)
COc1cc(-c2nnc(SCc3c(F)cccc3Cl)o2)cc(OC)c1OC : 9.1 µM (active)

Please find the next compound below.
Short answer for c1csc(-c2nn3c(Cn4cnc5ccccc54)nnc3s2)c1 : IC50 was < 0.1 µM (active)

---

assay.system: Sentrin-specific protease 7 (Homo sapiens, UniProt Q9BQF6)
Sequence (Q9BQF6 whole entry): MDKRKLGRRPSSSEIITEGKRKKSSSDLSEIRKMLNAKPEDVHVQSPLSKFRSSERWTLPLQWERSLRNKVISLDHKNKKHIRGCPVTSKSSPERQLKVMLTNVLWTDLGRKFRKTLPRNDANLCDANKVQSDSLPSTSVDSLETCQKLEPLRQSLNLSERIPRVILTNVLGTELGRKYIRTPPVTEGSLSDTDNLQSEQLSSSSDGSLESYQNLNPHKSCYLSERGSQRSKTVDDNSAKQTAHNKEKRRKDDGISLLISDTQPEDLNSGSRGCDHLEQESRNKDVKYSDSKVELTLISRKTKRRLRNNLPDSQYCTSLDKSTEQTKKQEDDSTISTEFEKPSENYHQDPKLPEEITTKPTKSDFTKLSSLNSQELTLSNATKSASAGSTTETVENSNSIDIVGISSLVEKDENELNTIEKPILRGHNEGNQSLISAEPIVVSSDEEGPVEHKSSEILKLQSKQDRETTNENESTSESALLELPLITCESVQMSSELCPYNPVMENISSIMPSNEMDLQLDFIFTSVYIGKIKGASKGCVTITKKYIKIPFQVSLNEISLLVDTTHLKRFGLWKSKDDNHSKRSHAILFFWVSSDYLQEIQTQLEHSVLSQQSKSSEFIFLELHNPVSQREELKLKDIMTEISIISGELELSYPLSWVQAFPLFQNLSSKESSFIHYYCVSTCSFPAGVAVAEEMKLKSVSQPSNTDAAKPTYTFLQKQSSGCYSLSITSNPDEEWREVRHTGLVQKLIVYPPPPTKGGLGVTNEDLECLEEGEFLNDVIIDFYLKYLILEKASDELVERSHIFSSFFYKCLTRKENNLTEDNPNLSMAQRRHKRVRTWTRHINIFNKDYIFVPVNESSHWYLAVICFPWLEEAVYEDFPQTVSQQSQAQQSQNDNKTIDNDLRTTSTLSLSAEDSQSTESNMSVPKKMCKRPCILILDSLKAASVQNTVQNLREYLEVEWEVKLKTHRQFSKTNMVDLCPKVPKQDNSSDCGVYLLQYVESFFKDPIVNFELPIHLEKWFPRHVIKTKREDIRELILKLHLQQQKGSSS
protocol.description: SENP7 protease inhibitors, SAR follow-up, biochemical, luminescence (AID 504497)
Type: functional
Calls of active or inactive are those of the source.
Write down one outcome, taken from true (1) (active), false (0) (inactive)

Take a look at these entries with their results.
Brc1ccc(-c2nc(/C=C/c3ccccc3)no2)cc1 : false (0)
COC(=O)c1ccccc1NC1=C/C(=N/S(=O)(=O)c2cccs2)c2ccccc2C1=O : true (1)
CN(C)c1ccc(/C=C/c2noc(-c3ccccc3O)n2)cc1 : true (1)

-- ask How did this test come out for NC(=O)c1ccc(NC(=O)c2ccc3c(c2)OCO3)cc1 ?
-- reply true (1)

---

assay.system: Corticotropin-releasing factor receptor 2/Corticotropin-releasing factor-binding protein (Homo sapiens, UniProt P24387+Q13324)
Sequence (Q13324 whole entry): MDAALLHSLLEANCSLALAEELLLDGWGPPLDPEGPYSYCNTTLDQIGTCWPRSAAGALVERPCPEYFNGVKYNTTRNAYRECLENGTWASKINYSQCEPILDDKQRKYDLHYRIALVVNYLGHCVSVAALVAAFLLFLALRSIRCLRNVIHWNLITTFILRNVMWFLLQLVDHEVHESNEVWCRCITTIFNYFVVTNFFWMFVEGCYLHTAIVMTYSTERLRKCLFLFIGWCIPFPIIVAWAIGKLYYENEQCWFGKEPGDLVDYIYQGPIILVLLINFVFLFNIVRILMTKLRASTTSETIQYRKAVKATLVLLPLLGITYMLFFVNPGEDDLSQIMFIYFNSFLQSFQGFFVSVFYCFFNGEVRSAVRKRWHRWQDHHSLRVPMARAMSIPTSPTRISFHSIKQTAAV
Sequence (P24387 whole entry): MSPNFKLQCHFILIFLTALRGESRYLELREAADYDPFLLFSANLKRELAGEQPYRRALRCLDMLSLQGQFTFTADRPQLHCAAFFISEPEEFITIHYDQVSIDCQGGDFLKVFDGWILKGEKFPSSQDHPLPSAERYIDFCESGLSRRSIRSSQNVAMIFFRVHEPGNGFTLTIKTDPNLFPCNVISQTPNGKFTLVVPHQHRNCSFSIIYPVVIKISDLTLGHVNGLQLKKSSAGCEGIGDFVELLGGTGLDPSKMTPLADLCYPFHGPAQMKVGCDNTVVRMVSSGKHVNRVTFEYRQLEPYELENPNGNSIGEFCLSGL
protocol.description: activators of CRF receptor 2 with binding protein – uHTS hits, confirmation (AID 602473)
Type: functional
experimental.setup: read-out: EC50_Mean
Active and inactive are the calls of the source.
Parameter call: string, one of YES = active, NO = inactive

Solved entries:
C=CCn1c(SCc2ccc(F)cc2)nc2c1c(=O)[nH]c(=O)n2C : NO
O=C(C[C@H]1C[C@H](C(=O)N2CCOCC2)[C@@]2(CCC3CCCC3)c3[nH]c4ccc(Cl)cc4c3CCN2C1=O)NCCN1CCOCC1 : NO

-- ask Call for entry Cn1c2ccccc2c(=O)c2c(=O)n(C3CCCCC3)c(-c3ccco3)nc21 :
-- reply YES

-- ask Could you please tell me the result logged for Cc1ccc(S(=O)(=O)CCC(=O)Nc2cc(Cl)ccc2-n2cncn2)cc1 in this assay?
-- reply NO

-- ask What did the test return for Cc1ccc(S(=O)(=O)N2CCCCC2)cc1C(=O)N(CCc1ccccc1)Cc1ccccc1 ?
-- reply NO

-- ask // outcome(item) with item = CCn1c(CCNC(=O)c2ccc(OC)cc2)nnc1SCc1ccc(Cl)c(Cl)c1
-- reply NO

-- ask // return assay outcome for Cc1ccc(S(=O)(=O)N2CCN(c3ncnc4scc(-c5ccccc5)c34)CC2)cc1
-- reply YES

---

protocol.description: Luminescence Cell-Based Dose Retest to Confirm Inhibitors of Cancer Stem Cells. [Related pubchem assays (depositor defined):AID2717, AID2721]
Assay type: functional, Homo sapiens
experimental.setup: Homo sapiens
Active and inactive are the calls of the source.
measurement.label: AC50

Answered examples (3):
COc1ccc(/C=N/NC(=O)c2cc(C34CC5CC(CC(C5)C3)C4)[nH]n2)cc1O : 1.16 µM (active)
COc1ccc(Br)cc1C(C[N+](=O)[O-])c1c(N)n(C)c(=O)n(C)c1=O (centres undefined) : 3.46 µM (active)
Cn1c(N)c(C(=O)COC(=O)c2ccccc2C(=O)c2ccc(Cl)c([N+](=O)[O-])c2)c(=O)n(C)c1=O : 4.25 µM (active)

We next turn to a different compound, shown below.
Please fill in: AC50 reported for COc1ccc2cc(/C=N/NC(=O)c3ccc(CN(c4cccc(Cl)c4Cl)S(C)(=O)=O)cc3)c(Cl)nc2c1 = < 0.16 µM (active)
